Target: HLA-B*08:01
Test: IEDB peptide-MHC binding, purified MHC/competitive/fluorescence; filed as Kd, often an IC50 or EC50 that approximates it; bounds were set here for any values at or beyond the usual limits of such assays
Details: source organism: Yersinia pestis Nepal516
pKd: −log10 of the molar value.
ENDPOINT_LABEL: pKd

Problem: Quick one: pKd of "FIRLRFAFK" ?
Result: ≤ 4.70

---

Target: HLA-A*32:01
Experiment: IEDB peptide-MHC binding, purified MHC/competitive/radioactivity; filed as Kd, often an IC50 or EC50 that approximates it; bounds were set here for any values at or beyond the usual limits of such assays
Conditions: source organism: Vaccinia virus WR
ENDPOINT_LABEL: log10 Kd (log10 of the value in nM)
Transform log10 | Measure Kd | Unit nM

ALATFTVNI	0.78
SLFSLLLVI	1.44
MTVASRQPI	3.46
KMFSNNVLI	0.04
TSNWTGNYF	4.06
ILLFVIVIY	2.98
KIYNVTNPF	0.63
KTMAPVHTY	0.66

Problem: Quick one: log10 Kd of "YQNHGFVSF" ?
Result: 2.55

Problem: Quick one: log10 Kd of "ITDVIVQSI" ?
Result: 2.41

---

Entries and their pKd values follow.
Biological target: HLA-A*31:01
Assay: IEDB peptide-MHC binding, purified MHC/competitive/radioactivity; filed as Kd, often an IC50 or EC50 that approximates it; bounds were set here for any values at or beyond the usual limits of such assays
Conditions: source organism: Vaccinia virus WR
Expect pKd as a plain number equal to -log10 of the molar concentration.

KSINKVYGRY	7.19
VSLKKTNDK	5.06
IANSNIIKNK	4.70
DMFLTSVINR	8.18
VIGLSGDSER	5.05

Problem: Quick one: pKd of "DVDIYDAVR" ?
Result: 4.85

Problem: Quick one: pKd of "LSPAHLINK" ?
Result: 4.73

Problem: Quick one: pKd of "LSLSNLDFR" ?
Result: 7.66

Problem: Quick one: pKd of "MFLTSVINR" ?
Result: 8.94

---

Biological target: HLA-A*01:01
Test: IEDB peptide-MHC binding, purified MHC/competitive/radioactivity; filed as Kd, often an IC50 or EC50 that approximates it; bounds were set here for any values at or beyond the usual limits of such assays
Conditions: source organism: Mammarenavirus guanaritoense
Entries and their Kd values follow.
# unit: nM | format: bare number

ISEPTIHLV	626

Problem: Quick one: Kd of "LKILVLSIL" ?
Result: 272

---

Biological target: HLA-C*07:02
Assay: IEDB peptide-MHC binding, purified MHC/direct/fluorescence; filed as Kd, often an IC50 or EC50 that approximates it; bounds were set here for any values at or beyond the usual limits of such assays
Details: source organism: Burkholderia pseudomallei 406e
ENDPOINT_LABEL: Kd (nM)
# unit: nM | format: bare number

Problem: Quick one: Kd of "MSWGWRLPF" ?
Result: 248

---

Biological target: HLA-A*03:01
Test: IEDB peptide-MHC binding, purified MHC/competitive/fluorescence; filed as Kd, often an IC50 or EC50 that approximates it; bounds were set here for any values at or beyond the usual limits of such assays
Details: source organism: Salmonella enterica subsp. enterica serovar Choleraesuis str. SC-B67
pKd: −log10 of the molar value.
ENDPOINT_LABEL: pKd

Problem: Requested read-out pKd, target or system HLA-A*03:01, entry "GIALAVPCV"
Result: ≤ 4.70

---

Biological target: HLA-A*68:02
Test: IEDB peptide-MHC binding, purified MHC/competitive/radioactivity; filed as Kd, often an IC50 or EC50 that approximates it; bounds were set here for any values at or beyond the usual limits of such assays
Details: source organism: Dengue virus 1 Brazil/97-11/1997
ENDPOINT_LABEL: pKd
Expect pKd as a plain number equal to -log10 of the molar concentration.

MTCIAVGMV	8.12

Problem: Requested read-out pKd, target or system HLA-A*68:02, entry "FTVIALFLA"
Result: 6.87

---

Molecular target: HLA-A*01:01
Test: IEDB peptide-MHC binding, purified MHC/direct/fluorescence; filed as Kd, often an IC50 or EC50 that approximates it; bounds were set here for any values at or beyond the usual limits of such assays
Settings: source organism: SARS-CoV1
ENDPOINT_LABEL: pKd
Expect pKd as a plain number equal to -log10 of the molar concentration.

Problem: Quick one: pKd of "LSDHQDLKW" ?
Result: 6.09

---

Molecular target: HLA-C*12:03
Assay: IEDB peptide-MHC binding, purified MHC/direct/fluorescence; filed as Kd, often an IC50 or EC50 that approximates it; bounds were set here for any values at or beyond the usual limits of such assays
Conditions: source organism: Murid gammaherpesvirus 4
ENDPOINT_LABEL: pKd
Expect pKd as a plain number equal to -log10 of the molar concentration.

Problem: Quick one: pKd of "VSFICTTIL" ?
Result: 6.31

---

Molecular target: HLA-A*23:01
Experiment: IEDB peptide-MHC binding, purified MHC/competitive/radioactivity; filed as Kd, often an IC50 or EC50 that approximates it; bounds were set here for any values at or beyond the usual limits of such assays
Details: source organism: Lassa virus Josiah
ENDPOINT_LABEL: Kd (nM)
# unit: nM | format: bare number

Problem: Quick one: Kd of "GYCLTRWMLI" ?
Result: 242

---

Target: HLA-B*53:01
Experiment: IEDB peptide-MHC binding, purified MHC/competitive/radioactivity; filed as Kd, often an IC50 or EC50 that approximates it; bounds were set here for any values at or beyond the usual limits of such assays
Conditions: source organism: Dengue virus 3 Martinique/1243/1999
ENDPOINT_LABEL: Kd (nM)
# unit: nM | format: bare number

TALFSGVSW	49.8
FPQSNAPIQ	69.8

Moving on to the next sequence.
Problem: Quick one: Kd of "MPSMKRFRKE" ?
Result: 10900

---

Biological target: HLA-B*44:03
Test: IEDB peptide-MHC binding, purified MHC/competitive/radioactivity; filed as Kd, often an IC50 or EC50 that approximates it; bounds were set here for any values at or beyond the usual limits of such assays
Conditions: source organism: Dengue virus 4 Philippines/H241/1956
ENDPOINT_LABEL: Kd (nM)
# unit: nM | format: bare number

Problem: Quick one: Kd of "MEVEIWTRE" ?
Result: 1080

---

Biological target: HLA-A*02:03
Experiment: IEDB peptide-MHC binding, purified MHC/competitive/radioactivity; filed as Kd, often an IC50 or EC50 that approximates it; bounds were set here for any values at or beyond the usual limits of such assays
Conditions: source organism: Variola major virus
ENDPOINT_LABEL: Kd

Problem: Quick one: Kd of "NLDDVYSYI" ?
Result: 96 nM

---

Target: HLA-A*69:01
Assay: IEDB peptide-MHC binding, purified MHC/competitive/fluorescence; filed as Kd, often an IC50 or EC50 that approximates it; bounds were set here for any values at or beyond the usual limits of such assays
Conditions: source organism: Orthohantavirus tulaense
ENDPOINT_LABEL: Kd

FMFNELLAL	≥ 20 µM

Moving on to the next sequence.
Problem: Quick one: Kd of "FGAAVSLLF" ?
Result: ≥ 20 µM

---

Biological target: HLA-A*02:06
Assay: IEDB peptide-MHC binding, purified MHC/competitive/radioactivity; filed as Kd, often an IC50 or EC50 that approximates it; bounds were set here for any values at or beyond the usual limits of such assays
Details: source organism: Dengue virus 2 Jamaica/1409/1983
Entries and their pKd values follow.
Expect pKd as a plain number equal to -log10 of the molar concentration.

AQMWTLMYF	8.56
FLIDGPETA	6.42

Problem: Quick one: pKd of "TLTAALLLLV" ?
Result: 7.11

---

Target: HLA-B*15:01
Experiment: IEDB peptide-MHC binding, purified MHC/competitive/fluorescence; filed as Kd, often an IC50 or EC50 that approximates it; bounds were set here for any values at or beyond the usual limits of such assays
Details: source organism: Vaccinia virus WR
ENDPOINT_LABEL: pKd
Expect pKd as a plain number equal to -log10 of the molar concentration.

Problem: Quick one: pKd of "KVFDKSLLY" ?
Result: 6.43

---

Entries and their Kd values follow.
Molecular target: HLA-B*35:01
Assay: IEDB peptide-MHC binding, purified MHC/competitive/radioactivity; filed as Kd, often an IC50 or EC50 that approximates it; bounds were set here for any values at or beyond the usual limits of such assays
Conditions: source organism: Dengue virus 4 Philippines/H241/1956
# unit: µM | format: bare number

Example results:
TPPGATDPF	0.132
NPRLCTREEF	0.892

Moving on to the next sequence.
Problem: Quick one: Kd of "IPKAYAGPF" ?
Result: 0.29
